System: HEK-293T
Test: Multiplex assay against HEK293T
Format: toxicity, cell-based
Settings: human, 24 h, 1 µM, compound concentration 1 uM, replicate 1
// label 0 strictly below 500 in Total Cell Count; label 1 otherwise

Check out these entries, answers already filled in.
| COMPOUND | CLASSIFICATION |
| --- | --- |
| Cc1cc(O)c(-c2ccc([C@@H](C)CN(C)C)cc2)c2c1[nH]c(=O)c1sccc12 | label 0 |
| COc1c(Nc2ccc(S(C)(=O)=O)nc2C)ncnc1OC1CCN(C(=O)OC(C)C)CC1 [ADP-597] | label 1 |

Data request: Assess whether reported Total Cell Count for CC(F)(F)CN1CCOc2c(nn(-c3ccccc3Cl)c2-c2ccc(Cl)cc2)C1=O sits at 500 or higher.
Data returned: label 1

Data request: API: above_or_equal(metric=Total Cell Count, cutoff=500) for item CC(C)(O)C(=O)N1CCN(c2ccc(C(F)(F)F)c(C3=C(c4c[nH]c5ccccc45)C(=O)NC3=O)c2)CC1
Data returned: label 0

Data request: # bool: Total Cell Count of Cn1cc(C(=O)OCC2CCN(CCNS(C)(=O)=O)CC2)c2ccccc21 >= 500
Data returned: label 1

Data request: Exam item: decide whether the reported Total Cell Count for CN(C)C/C=C/C(=O)Nc1ccc(C(=O)N2CCCC(Nc3ncc(Cl)c(-c4c[nH]c5ccccc45)n3)C2)cc1 (stereo not drawn) is at least 500.
Data returned: label 0

====

Tested on: U2OS
Experiment: Multiplex assay against U2OS
Assay type: toxicity, cell-based
Conditions: human, 48 h, 1 µM, compound concentration 1 uM, replicate 2
Non-standard residues stand in square brackets, D forms with d. Residues, ends and D or L forms follow the SMILES beside them.
Measured Population Apoptotic (%) accompanies every entry in the list below.
Write it as a number; the unit % goes unstated.

| MOLECULE | RESULT_VALUE |
| --- | --- |
| C=CCN1C[C@H](C(=O)N(CCCN(C)C)C(=O)NCC)C[C@@H]2c3cccc4[nH]cc(c34)C[C@H]21 [CABERGOLINE] | 93 |
| CCn1c(-c2nc3cc(C(=O)N4CCCC(N)C4)ccc3n2C)cc2ccccc21.Cl (stereo not drawn) | 70 |
| C[C@H](NC(=O)CNC(=O)c1cccc(Cl)c1)c1ccccc1 | 100 |
| COc1cc(OC2CCN(C(C)=O)CC2)ccc1C(=O)N1CCC(N2C(=O)OCc3ccccc32)CC1 | 65 |
| Cc1c(Cc2ccc3ccccc3n2)c2cc(F)ccc2n1CC(=O)O [TIMAPIPRANT] | 90 |

Data request: Query Population Apoptotic (%) for Nc1nc(CC(=O)Nc2ccc(CCNC[C@H](O)c3ccccc3)cc2)cs1 [MIRABEGRON]
Data returned: 78

Data request: Provide one value: measured Population Apoptotic (%) of S=C(NCCCc1c[nH]cn1)NCCCN(Cc1ccc(Cl)c(Cl)c1)c1ccc(Br)cn1
Data returned: 87

Data request: Input COC(c1ccccc1)(c1ccccc1)[C@H](Oc1nc(C)cc(C)n1)C(=O)O [AMBRISENTAN] , output reported Population Apoptotic (%).
Data returned: 93

Data request: Please give measured Population Apoptotic (%) of the following entry: COCCn1c(C)c(C)s/c1=N\C(=O)C1C(C)(C)C1(C)C
Data returned: 100

Data request: For CC(C)C[C@H](CO)Nc1nc(S[C@@H](C)c2ccccc2)nc2nc(N)sc12 [AZD-8797] , write its Population Apoptotic (%).
Data returned: 100

Data request: Give the value of Population Apoptotic (%) reported for the following: CC(C)C[C@@H]1NC(=O)[C@@H](C(C)C)NC(=O)[C@@H]2CCCN2C(=O)[C@@H](CC(=O)O)NC(=O)[C@@H](Cc2c[nH]c3ccccc23)NC1=O [BQ-123] (cyclo(L[dW][dD]P[dV]))
Data returned: 100

Data request: For the molecule CN(C)C(=O)Cn1cc(-c2ccc(-c3nnc4ccccn34)cc2)cn1 , give its measured Population Apoptotic (%) value.
Data returned: 93

Data request: Give the reported Population Apoptotic (%) for this molecule. COc1cc2nc(N3CCN(C(=O)c4ccco4)CC3)nc(N)c2cc1OC.Cl [PRAZOSIN HYDROCHLORIDE]
Data returned: 100

Data request: Write down Population Apoptotic (%) measured for item CCc1nn2c(C)cc(C)nc2c1Cc1ccc(-c2nnc(C3CCNCC3)o2)cc1
Data returned: 85

Data request: Indicate the recorded Population Apoptotic (%) value for this molecule: O=c1nc2[nH]c3ccccc3nc-2c(=O)[nH]1 [ALLOXAZINE]
Data returned: 76

Data provenance: ChEMBL document CHEMBL5058577
